Biological target: Cathepsin G (Homo sapiens); note: in other assays of this panel Not Active means under 50% inhibition at 10 µM;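 note: inhibition of Cathepsin G enzyme activity, tested on an AMC-conjugated peptide substrate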
Sequence (P08311 whole entry): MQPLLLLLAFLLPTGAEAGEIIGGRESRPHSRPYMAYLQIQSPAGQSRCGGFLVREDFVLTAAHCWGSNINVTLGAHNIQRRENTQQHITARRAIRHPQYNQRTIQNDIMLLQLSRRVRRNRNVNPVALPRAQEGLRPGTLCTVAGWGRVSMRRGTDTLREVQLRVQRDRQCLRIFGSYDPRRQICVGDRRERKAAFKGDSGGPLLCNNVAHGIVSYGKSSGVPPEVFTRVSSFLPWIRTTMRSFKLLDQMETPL
Format: tissue-based
Details: neutrophil
recorded.endpoint: IC50

- TRANSPLATIN: Not Active
- ZIRCONIUM(IV) CHLORIDE: Not Active
- COLISTIN: Not Active
- COBALTOUS CHLORIDE: Not Active
